Data credit: paper PMC10746112

Catalogue of viability at 10 µM values
- System: DG-75 Burkitt’s lymphoma cell line
- measurement-notes: alamarBlue cell viability assay
- study-conditions: Homo sapiens, DG-75, 48 h, read-out: % Viable Cells Remaining DG-75, 10 µM, 48 h
Answer in %, number only, no unit symbol.

// below: answered molecules
- ClCc1c2ccccc2cc2ccccc12 [Compound 27, 9-(chloromethyl)anthracene]: 85.5
- CC/C(=C\c1c2ccccc2c(Cl)c2ccccc12)[N+](=O)[O-] [Compound 19f]: 78
- CC/C(=C\c1c2ccccc2cc2ccccc12)[N+](=O)[O-] [Compound 19c]: 92.3

Then this molecule:
The molecule CC(=O)O[C@H]1C(=O)[C@@]2(C)[C@H]([C@H](OC(=O)c3ccccc3)[C@]3(O)C[C@H](OC(=O)[C@H](O)[C@@H](NC(=O)c4ccccc4)c4ccccc4)C(C)=C1C3(C)C)[C@]1(OC(C)=O)CO[C@@H]1C[C@@H]2O [Taxol, taxol, reference compound] showed viability at 10 µM equal to 40

* * *

- Tested on: HeLa cervical cancer cells
- measurement-notes: alamarBlue cell viability assay
- study-conditions: Homo sapiens, 24 h, read-out: % Viable Cells Remaining HeLa 24 h 1 µM
Measured viability at 1 µM accompanies every entry in the list below.
Hi! Could you send only the number? It should be in %, unit omitted.

Take a look at these entries with their results.
- CC/C(=C\c1ccccc1Cl)[N+](=O)[O-] [Compound 11j]: 95.3
- C/C(=C\c1ccccc1Cl)[N+](=O)[O-] [Compound 11g]: 87.1
- C/C(=C\c1ccc(Cl)cc1)[N+](=O)[O-] [Compound 11i]: 93

Measured viability at 1 µM of C/C(=C\c1cccc(Cl)c1)[N+](=O)[O-] [Compound 11h] : 90.6

get_value(item= CC(=O)O[C@H]1C(=O)[C@@]2(C)[C@H]([C@H](OC(=O)c3ccccc3)[C@]3(O)C[C@H](OC(=O)[C@H](O)[C@@H](NC(=O)c4ccccc4)c4ccccc4)C(C)=C1C3(C)C)[C@]1(OC(C)=O)CO[C@@H]1C[C@@H]2O [Taxol, taxol, reference compound] , readout=viability at 1 µM) returns 86.9

* * *

- System: DG-75 Burkitt’s lymphoma cell line
- measurement-notes: alamarBlue cell viability assay
- study-conditions: Homo sapiens, DG-75, 48 h, read-out: % Viable Cells Remaining DG-75, 10 µM, 48 h
Listed here: items and their measured viability at 10 µM.
Numeric only. Scale: %

Form field viability at 10 µM for item O=C(c1c2ccccc2cc2ccccc12)N1CCOCC1 [Compound 33e] on DG-75 Burkitt’s lymphoma cell line: 80.2

Lab note: compound O/N=C/c1c2ccccc2cc2ccccc12 [Compound 32c] tested on DG-75 Burkitt’s lymphoma cell line; recorded viability at 10 µM was 101

Sample O=[N+]([O-])/C=C/c1c2cccc(Cl)c2cc2c(Cl)cccc12 [Compound 19k] , system: DG-75 Burkitt’s lymphoma cell line. Its viability at 10 µM is 0.15

* * *

- Test system: MCF-7 human breast cancer cells
- measurement-notes: alamarBlue cell viability assay
- study-conditions: MCF7, 72 h, read-out: % Viable Cells Remaining MCF-7 72 h 10 µM
Binary call on viability at 10 µM with cut-off 40%: strictly below means fulfilled, and equality or higher means not fulfilled.

See these solved cases before continuing.
* CC(=O)O[C@H]1C(=O)[C@@]2(C)[C@H]([C@H](OC(=O)c3ccccc3)[C@]3(O)C[C@H](OC(=O)[C@H](O)[C@@H](NC(=O)c4ccccc4)c4ccccc4)C(C)=C1C3(C)C)[C@]1(OC(C)=O)CO[C@@H]1C[C@@H]2O [Taxol, taxol, reference compound] | not fulfilled
* C/C(=C\c1cccc(Cl)c1)[N+](=O)[O-] [Compound 11h] | fulfilled
* C/C(=C\c1ccc(Cl)cc1)[N+](=O)[O-] [Compound 11i] | fulfilled
* CC/C(=C\c1ccccc1Cl)[N+](=O)[O-] [Compound 11j] | fulfilled

Turning now to a further record.
Exercise: Criterion: viability at 10 µM strictly below 40%. Is it met by C/C(=C\c1ccccc1Cl)[N+](=O)[O-] [Compound 11g] ?
Key: not fulfilled
